Test: Cytotoxicity against HEK293T cells
Format: cell-based, HEK-293T
Settings: human
Listed compounds paired with reported CC50

Past entries and their recorded results:
N#Cc1ncc(Br)c(N(CC2CCCC2)NC(=O)C2CCC3(CC2)OOC2(OO3)C3CC4CC(C3)CC2C4)n1 (centres undefined) :: > 100 µM
CC(C)CN(NC(=O)C1CCC2(CC1)OOC1(OO2)C2CC3CC(C2)CC1C3)c1nc(C#N)ncc1Br (centres undefined) :: > 100 µM
CC(C)CN(NC(=O)CC1CCC2(CC1)OOC1(OO2)C2CC3CC(C2)CC1C3)c1nc(C#N)ncc1Br (centres undefined) :: 85.5 µM

Attention now turns to another entry.
Please fill in: CC50 reported for CC(C)CN(NC(=O)C1CCC(=O)CC1)c1nc(C#N)ncc1Br = > 100 µM

Origin of values: ChEMBL document CHEMBL3286314
